Quick reference for melting point among some molecules

CCOc1ccc2c(=O)cc(-c3ccccc3OC(=O)N(C)CC)oc2c1; 91 to 93.5 °C

// melting point value for COc1ccccc1-c1cc(=O)c2ccc(OC(=O)N(C)C)cc2o1 : 133.5 to 135 °C

Entry CN(C)C(=O)Oc1cccc(-c2cc(=O)c3cc(N(C)C)ccc3o2)c1 — recorded melting point = 167 to 168 °C

For this molecule ( CN(C)C(=O)Oc1ccc2c(=O)cc(-c3ccccc3OC(=O)N(C)C)oc2c1 ), measured melting point is 145.5 to 147 °C

Lab note: measured melting point of CN(C)C(=O)Oc1cccc(-c2cc(=O)c3cc(N)ccc3o2)c1 was 157 to 159 °C

Lookup result for CCOc1ccc2c(=O)cc(-c3ccccc3OC(=O)N(C)C)oc2c1 ; measured melting point: 166 to 168 °C
